Read-out record for 5-HT1E (Homo sapiens, UniProt P28566): Ki

1) O=c1c2sc(Cl)cc2n2c(=S)[nH]nc2n1CC1CC1
> 10 µM

Moving on to the next molecule.
*Q* Recorded Ki of Cn1cnc([N+](=O)[O-])c1Sc1nnc2n(CC3CC3)c(=O)c3sc(Cl)cc3n12 , please.
*A* > 10 µM

====

target: Sigma 1 (Homo sapiens, UniProt Q99720)
Sequence (Q99720 whole entry): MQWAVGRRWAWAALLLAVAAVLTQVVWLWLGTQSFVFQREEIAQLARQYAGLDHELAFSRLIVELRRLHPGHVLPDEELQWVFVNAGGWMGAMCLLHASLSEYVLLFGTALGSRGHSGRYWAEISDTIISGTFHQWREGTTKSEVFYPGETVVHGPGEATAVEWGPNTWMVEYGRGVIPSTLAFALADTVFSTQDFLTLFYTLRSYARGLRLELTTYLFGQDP
pKi: −log10 of the molar value.
I'd be grateful if you could share measured pKi for these entries.

1) O=c1c2sc(Cl)cc2n2c(=S)[nH]nc2n1CC1CC1 [Allopole-A]
< 5.00

*Q* # get_value(readout= pKi, system= Sigma 1 (Homo sapiens, UniProt Q99720)) for Cn1cnc([N+](=O)[O-])c1Sc1nnc2n(CC3CC3)c(=O)c3sc(Cl)cc3n12 [Allopole]
*A* < 5.00

====

molecular target: MOR (Homo sapiens, UniProt P35372)
Sequence (P35372 whole entry): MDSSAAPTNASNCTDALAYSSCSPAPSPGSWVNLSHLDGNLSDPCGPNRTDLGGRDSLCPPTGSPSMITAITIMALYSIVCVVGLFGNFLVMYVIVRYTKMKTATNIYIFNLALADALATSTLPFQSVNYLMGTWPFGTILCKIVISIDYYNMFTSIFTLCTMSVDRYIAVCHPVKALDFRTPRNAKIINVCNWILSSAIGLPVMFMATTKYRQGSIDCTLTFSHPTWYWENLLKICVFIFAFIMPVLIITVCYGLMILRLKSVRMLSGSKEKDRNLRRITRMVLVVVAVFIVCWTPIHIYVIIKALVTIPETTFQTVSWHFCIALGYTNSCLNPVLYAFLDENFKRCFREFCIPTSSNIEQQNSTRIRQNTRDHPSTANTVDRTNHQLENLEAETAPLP
I'd be grateful if you could share measured Ki for these entries.

For each listed entry, give its Ki.
1. O=c1c2sc(Cl)cc2n2c(=S)[nH]nc2n1CC1CC1 [Allopole-A]
2. Cn1cnc([N+](=O)[O-])c1Sc1nnc2n(CC3CC3)c(=O)c3sc(Cl)cc3n12 [Allopole]

*A*
1. > 10 µM
2. > 10 µM

====

target: Alpha2C (Homo sapiens, UniProt P18825)
Sequence (P18825 whole entry): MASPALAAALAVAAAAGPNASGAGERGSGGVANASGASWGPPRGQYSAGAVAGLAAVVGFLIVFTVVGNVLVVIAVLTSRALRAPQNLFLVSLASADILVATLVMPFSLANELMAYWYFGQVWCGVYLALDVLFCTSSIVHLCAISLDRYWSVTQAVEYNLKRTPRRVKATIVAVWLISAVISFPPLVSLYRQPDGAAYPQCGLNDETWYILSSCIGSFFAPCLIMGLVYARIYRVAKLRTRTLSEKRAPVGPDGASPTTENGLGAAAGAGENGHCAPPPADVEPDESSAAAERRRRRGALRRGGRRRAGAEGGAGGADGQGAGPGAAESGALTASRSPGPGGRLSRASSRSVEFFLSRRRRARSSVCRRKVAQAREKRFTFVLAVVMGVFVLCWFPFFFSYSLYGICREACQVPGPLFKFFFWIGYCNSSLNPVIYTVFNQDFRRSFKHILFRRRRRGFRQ
I'd be grateful if you could share measured Ki for these entries.

1) O=c1c2sc(Cl)cc2n2c(=S)[nH]nc2n1CC1CC1
> 10 µM

*Q* Recorded Ki of Cn1cnc([N+](=O)[O-])c1Sc1nnc2n(CC3CC3)c(=O)c3sc(Cl)cc3n12 , please.
*A* > 10 µM

====

target: UniProtKB P08908
Sequence (P08908 whole entry): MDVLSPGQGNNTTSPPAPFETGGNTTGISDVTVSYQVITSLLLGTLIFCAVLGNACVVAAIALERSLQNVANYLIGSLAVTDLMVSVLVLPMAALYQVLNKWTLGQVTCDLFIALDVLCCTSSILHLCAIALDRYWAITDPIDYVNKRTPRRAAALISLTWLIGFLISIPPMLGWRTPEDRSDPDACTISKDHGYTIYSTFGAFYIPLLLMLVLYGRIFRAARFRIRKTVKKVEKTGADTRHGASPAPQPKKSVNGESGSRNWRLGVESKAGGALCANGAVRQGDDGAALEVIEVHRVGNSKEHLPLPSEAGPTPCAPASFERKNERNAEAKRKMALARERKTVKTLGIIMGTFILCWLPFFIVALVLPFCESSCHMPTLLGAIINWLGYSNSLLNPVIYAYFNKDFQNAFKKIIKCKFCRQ
pKi: −log10 of the molar value.
I'd be grateful if you could share measured pKi for these entries.

1. O=c1c2sc(Cl)cc2n2c(=S)[nH]nc2n1CC1CC1 [Allopole-A]
< 5.00

*Q* # get_value(readout= pKi, system= UniProtKB P08908) for Cn1cnc([N+](=O)[O-])c1Sc1nnc2n(CC3CC3)c(=O)c3sc(Cl)cc3n12 [Allopole]
*A* < 5.00

====

Target protein (sequence): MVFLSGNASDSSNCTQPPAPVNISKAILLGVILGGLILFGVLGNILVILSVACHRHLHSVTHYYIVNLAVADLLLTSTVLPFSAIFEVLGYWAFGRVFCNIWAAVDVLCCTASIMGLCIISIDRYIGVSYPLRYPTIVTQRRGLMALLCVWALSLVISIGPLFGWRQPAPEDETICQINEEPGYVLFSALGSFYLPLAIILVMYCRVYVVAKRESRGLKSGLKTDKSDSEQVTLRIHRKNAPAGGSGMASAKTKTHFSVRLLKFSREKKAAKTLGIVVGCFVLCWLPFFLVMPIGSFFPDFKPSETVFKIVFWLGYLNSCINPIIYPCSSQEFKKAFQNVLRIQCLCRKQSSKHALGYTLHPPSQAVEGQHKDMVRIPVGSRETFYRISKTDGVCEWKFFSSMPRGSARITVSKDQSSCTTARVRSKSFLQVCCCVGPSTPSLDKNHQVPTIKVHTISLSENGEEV
parameter-measured: Ki

1) Cn1cnc([N+](=O)[O-])c1Sc1nnc2n(CC3CC3)c(=O)c3sc(Cl)cc3n12 [Allopole]
> 10 µM

Moving on to the next compound.
*Q* Recorded Ki of O=c1c2sc(Cl)cc2n2c(=S)[nH]nc2n1CC1CC1 [Allopole-A] , please.
*A* > 10 µM

====

Protein target, amino acids: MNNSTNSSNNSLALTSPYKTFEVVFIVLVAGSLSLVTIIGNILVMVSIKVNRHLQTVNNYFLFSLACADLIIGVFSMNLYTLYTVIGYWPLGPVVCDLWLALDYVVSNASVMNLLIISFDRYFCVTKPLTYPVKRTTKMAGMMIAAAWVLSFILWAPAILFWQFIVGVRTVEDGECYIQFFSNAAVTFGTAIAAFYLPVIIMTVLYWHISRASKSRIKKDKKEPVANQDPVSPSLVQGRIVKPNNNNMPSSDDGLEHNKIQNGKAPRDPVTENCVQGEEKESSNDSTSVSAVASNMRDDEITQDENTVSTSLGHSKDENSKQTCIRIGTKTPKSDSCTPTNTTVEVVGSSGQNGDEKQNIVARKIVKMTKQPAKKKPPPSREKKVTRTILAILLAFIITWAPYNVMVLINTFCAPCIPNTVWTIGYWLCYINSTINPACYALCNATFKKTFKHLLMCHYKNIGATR
parameter-measured: Ki

1) O=c1c2sc(Cl)cc2n2c(=S)[nH]nc2n1CC1CC1
> 10 µM

Moving on to the next compound.
*Q* Recorded Ki of Cn1cnc([N+](=O)[O-])c1Sc1nnc2n(CC3CC3)c(=O)c3sc(Cl)cc3n12 , please.
*A* > 10 µM

====

I'd be grateful if you could share measured Ki for these entries.
biological target: 5-HT2B (Homo sapiens)
Sequence (P41595 whole entry): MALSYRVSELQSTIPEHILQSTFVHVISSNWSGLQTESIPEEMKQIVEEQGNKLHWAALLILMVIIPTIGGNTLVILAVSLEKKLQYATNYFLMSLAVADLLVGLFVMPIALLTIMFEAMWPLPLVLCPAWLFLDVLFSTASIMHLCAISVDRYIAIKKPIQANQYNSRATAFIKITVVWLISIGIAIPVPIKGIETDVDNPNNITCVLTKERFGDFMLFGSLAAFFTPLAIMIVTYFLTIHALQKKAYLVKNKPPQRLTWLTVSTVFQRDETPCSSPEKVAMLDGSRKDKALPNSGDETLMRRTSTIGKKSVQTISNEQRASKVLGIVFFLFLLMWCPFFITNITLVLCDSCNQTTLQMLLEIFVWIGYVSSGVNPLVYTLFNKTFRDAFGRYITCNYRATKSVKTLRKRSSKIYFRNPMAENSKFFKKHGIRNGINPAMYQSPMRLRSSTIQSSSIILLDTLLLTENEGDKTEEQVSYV

1) O=c1c2sc(Cl)cc2n2c(=S)[nH]nc2n1CC1CC1
> 10 µM

Moving on to the next molecule.
*Q* Recorded Ki of Cn1cnc([N+](=O)[O-])c1Sc1nnc2n(CC3CC3)c(=O)c3sc(Cl)cc3n12 , please.
*A* > 10 µM

====

Target: M5 (Homo sapiens)
Sequence (P08912 1-532): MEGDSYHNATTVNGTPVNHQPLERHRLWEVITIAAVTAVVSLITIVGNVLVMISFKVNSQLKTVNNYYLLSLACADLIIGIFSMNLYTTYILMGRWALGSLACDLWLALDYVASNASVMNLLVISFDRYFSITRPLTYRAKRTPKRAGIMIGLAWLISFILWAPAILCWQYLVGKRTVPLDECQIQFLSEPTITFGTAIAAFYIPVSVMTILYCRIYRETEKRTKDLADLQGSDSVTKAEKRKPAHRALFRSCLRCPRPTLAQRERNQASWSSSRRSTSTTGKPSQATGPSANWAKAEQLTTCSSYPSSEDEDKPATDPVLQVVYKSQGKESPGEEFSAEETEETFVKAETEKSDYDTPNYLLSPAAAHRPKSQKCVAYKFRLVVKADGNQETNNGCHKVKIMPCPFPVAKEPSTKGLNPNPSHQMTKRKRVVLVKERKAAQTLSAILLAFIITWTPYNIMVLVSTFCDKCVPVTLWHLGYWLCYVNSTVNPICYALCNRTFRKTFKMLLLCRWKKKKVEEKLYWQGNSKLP
parameter-measured: Ki

1. Cn1cnc([N+](=O)[O-])c1Sc1nnc2n(CC3CC3)c(=O)c3sc(Cl)cc3n12 [Allopole]
> 10 µM

Moving on to the next compound.
*Q* # get_value(readout= Ki, system= M5 (Homo sapiens)) for O=c1c2sc(Cl)cc2n2c(=S)[nH]nc2n1CC1CC1 [Allopole-A]
*A* > 10 µM

====

Read-out record for Sigma 2 (Homo sapiens): Ki

1. Cn1cnc([N+](=O)[O-])c1Sc1nnc2n(CC3CC3)c(=O)c3sc(Cl)cc3n12 [Allopole]
> 10 µM

Moving on to the next compound.
*Q* # get_value(readout= Ki, system= Sigma 2 (Homo sapiens)) for O=c1c2sc(Cl)cc2n2c(=S)[nH]nc2n1CC1CC1 [Allopole-A]
*A* > 10 µM

====

I'd be grateful if you could share measured Ki for these entries.
target: 5-HT6 (Homo sapiens)
Sequence (P50406 whole entry): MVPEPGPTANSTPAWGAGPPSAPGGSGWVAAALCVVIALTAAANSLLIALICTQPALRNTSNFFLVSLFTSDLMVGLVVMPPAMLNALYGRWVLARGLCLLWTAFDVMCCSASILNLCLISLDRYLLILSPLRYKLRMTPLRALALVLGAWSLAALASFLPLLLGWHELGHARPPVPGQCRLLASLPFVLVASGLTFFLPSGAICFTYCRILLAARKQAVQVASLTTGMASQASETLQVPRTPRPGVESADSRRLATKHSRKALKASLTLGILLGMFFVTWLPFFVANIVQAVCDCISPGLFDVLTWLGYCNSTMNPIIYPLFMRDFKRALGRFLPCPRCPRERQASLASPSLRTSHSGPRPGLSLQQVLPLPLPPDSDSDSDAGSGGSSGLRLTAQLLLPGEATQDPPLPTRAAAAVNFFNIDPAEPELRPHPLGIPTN

1. Cn1cnc([N+](=O)[O-])c1Sc1nnc2n(CC3CC3)c(=O)c3sc(Cl)cc3n12
> 10 µM

Moving on to the next compound.
*Q* Recorded Ki of O=c1c2sc(Cl)cc2n2c(=S)[nH]nc2n1CC1CC1 , please.
*A* > 10 µM

====

I'd be grateful if you could share measured pKi for these entries.
target: UniProt P07550
Sequence (P07550 whole entry): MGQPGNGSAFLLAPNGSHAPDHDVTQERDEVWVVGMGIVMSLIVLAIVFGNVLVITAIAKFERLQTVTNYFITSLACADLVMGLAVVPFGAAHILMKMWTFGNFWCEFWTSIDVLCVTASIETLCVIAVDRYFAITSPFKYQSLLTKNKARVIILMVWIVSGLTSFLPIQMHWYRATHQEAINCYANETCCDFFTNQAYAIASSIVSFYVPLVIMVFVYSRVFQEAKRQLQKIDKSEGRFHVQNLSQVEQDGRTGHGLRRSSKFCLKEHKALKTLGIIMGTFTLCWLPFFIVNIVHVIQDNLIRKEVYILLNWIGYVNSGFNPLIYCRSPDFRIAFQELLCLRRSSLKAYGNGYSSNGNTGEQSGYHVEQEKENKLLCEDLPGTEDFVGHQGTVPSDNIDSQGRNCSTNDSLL
pKi: −log10 of the molar value.

1. Cn1cnc([N+](=O)[O-])c1Sc1nnc2n(CC3CC3)c(=O)c3sc(Cl)cc3n12
< 5.00

*Q* # get_value(readout= pKi, system= UniProt P07550) for O=c1c2sc(Cl)cc2n2c(=S)[nH]nc2n1CC1CC1
*A* < 5.00

====

molecular target: Beta1 (Homo sapiens, UniProt P08588)
Sequence (P08588 whole entry): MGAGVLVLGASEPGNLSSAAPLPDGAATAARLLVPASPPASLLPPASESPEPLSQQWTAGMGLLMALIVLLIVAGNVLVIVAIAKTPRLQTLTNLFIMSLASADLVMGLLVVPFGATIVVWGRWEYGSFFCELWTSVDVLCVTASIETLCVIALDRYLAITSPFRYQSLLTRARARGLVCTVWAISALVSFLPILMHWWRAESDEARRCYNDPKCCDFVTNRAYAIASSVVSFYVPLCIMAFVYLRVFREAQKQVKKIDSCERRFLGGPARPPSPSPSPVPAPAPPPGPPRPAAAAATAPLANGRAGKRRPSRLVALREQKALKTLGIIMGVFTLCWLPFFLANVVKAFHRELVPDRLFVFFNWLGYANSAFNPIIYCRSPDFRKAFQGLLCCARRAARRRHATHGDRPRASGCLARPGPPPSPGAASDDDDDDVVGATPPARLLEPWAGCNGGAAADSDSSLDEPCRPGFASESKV
parameter-measured: Ki

1) O=c1c2sc(Cl)cc2n2c(=S)[nH]nc2n1CC1CC1 [Allopole-A]
> 10 µM

Moving on to the next compound.
*Q* Recorded Ki of Cn1cnc([N+](=O)[O-])c1Sc1nnc2n(CC3CC3)c(=O)c3sc(Cl)cc3n12 [Allopole] , please.
*A* > 10 µM

====

target: BZP Rat brain site; assay: PDSP off-target binding screen; settings: read-out: Secondary screen Ki
parameter-measured: pKi
Numbers only, as −log10 of the molar value.

*Q* # get_value(readout= pKi, system= BZP Rat brain site) for Cc1cc2c(s1)c(=O)n(CC1CC1)c1n[nH]c(=S)n21
*A* 6.39

====

I'd be grateful if you could share measured IC50 for these entries.
target: Plk1 PBD (PBD1) (Homo sapiens, UniProt P53350); construct: constructs expressing PBD1 (residues 345–603) WT (pKM7650); His; TEV site (N); assay: FP-based inhibition assay, PBD1; conditions: FP, bacterially expressed purified PBD, FITC-ligand 15 nM, PBD at EC85; read-out: PBD1 IC50 ± SD
Sequence (P53350 345-603): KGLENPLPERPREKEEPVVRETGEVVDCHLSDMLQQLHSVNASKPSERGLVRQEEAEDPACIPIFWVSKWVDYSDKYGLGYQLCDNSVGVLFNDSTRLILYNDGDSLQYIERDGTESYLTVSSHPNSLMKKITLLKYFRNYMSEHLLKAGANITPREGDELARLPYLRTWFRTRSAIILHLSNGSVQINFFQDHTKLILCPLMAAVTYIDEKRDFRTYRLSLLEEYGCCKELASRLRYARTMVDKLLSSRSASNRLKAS
One number for each entry, in µM.

1) CCCn1c(=O)c2sc(C)cc2n2c(=S)[nH]nc12 [compound 3]
0.0102

Moving on to the next molecule.
*Q* Recorded IC50 of Cc1cc2c(s1)c(=O)n(CC1CC1)c1n[nH]c(=S)n21 [compound 5] , please.
*A* 0.0128
